Cited source: patent US4948880A

Parameter IC50: see the listing below.
# System: mouse L1210 leukemia cells
# assay: Formation of L1210 leukemia cell colonies in soft agar (cytostatic activity)
# Type: cell-based
# settings: Mus musculus, L1210, read-out: 1 h incubation IC50, 1 hour incubation with test substance at 37° C., then washed, 7 days in agar; colonies > 60 μm, % of untreated control

>  <compound>
CC[C@@]1(O)C[C@H](O[C@H]2C[C@H](N(C)Cc3ccc([N+](=O)[O-])cc3)[C@H](O)[C@H](C)O2)c2c(O)c3c(c(O)c2[C@H]1O)C(=O)c1cccc(O)c1C3=O [compound 24]

>  <IC50 (mg/L)>
2.5

$$$$
>  <compound>
COc1cccc2c1C(=O)c1c(O)c3c(c(O)c1C2=O)C[C@@](O)(C(=O)CO)C[C@@H]3O[C@H]1C[C@H](N)[C@H](O)[C@H](C)O1 [Adriamycin, 7-O-α-L-daunosaminyl-adriamycinone, reference compound]

>  <IC50 (mg/L)>
0.04

$$$$
